# System: KB-3-1
# assay.summary: Cytotoxic Profiling of Annotated Libraries Using Quantitative High-Throughput Screening (AID 1296008); further: on the % scale 0 is the no-effect control and ±100 the full control effect; nearly all actives have a fitted effect of over 60% in size
# condition.details: Five cell lines viability, CellTiter-Glo ATP luminescence, 48-72 h; active compounds read low
Inconclusive results are not listed.
assay.metric: max response (%)
Response body: numeric value in %, unit text excluded.

**Query** Recall and state the measured max response for CC1(C)CC[C@]2(C(=O)O)CC[C@]3(C)C(=CCC4[C@@]5(C)CC[C@H](O[C@@H]6O[C@H](C(=O)O)[C@@H](O)[C@H](O)[C@H]6O)C(C)(C)C5CC[C@]43C)C2C1 (stereo not given in full) .
**Result** 4.15

**Query** Supply recorded max response for CC1(C)CC[C@]2(C(=O)O)CC[C@]3(C)C(=CCC4[C@@]5(C)C(=O)C[C@H](O)[C@@](C)(CO)C5CC[C@]43C)[C@@H]2C1 (stereo not given in full) here.
**Result** 8.25

**Query** Name the recorded max response of the item `CC[C@@H]1[C@H]2CCCCN3C(=O)C[C@H]([C@@H]4[C@H]1OC(=O)[C@H]4C)[C@@H]23` in your answer.
**Result** -6.87

**Query** Give max response for the following molecule: CC1=C2C3OC(=O)C(C)C3(O)CCC2(C)CCC1 (stereo not given)
**Result** 2.02

**Query** Note max response for the molecule shown: CC1=C(CCC(C)O[C@@H]2O[C@H](CO)[C@@H](O)[C@H](O)[C@H]2O)C(C)(C)CC(O)C1 (stereo not given in full)
**Result** 1.93

**Query** For the molecule CC(=O)O[C@H]1[C@H](OC(=O)C(C)C)[C@]2(C)OC3(CC[C@]2(C)[C@H]2CCC[C@]4(CO4)[C@]12C)COC(=O)C3 (stereo not given in full) , report max response.
**Result** 4.61

**Query** Return max response (reported value) for this molecule: CC(=O)/C=C/C1(O)C(C)=CC(=O)CC1(C)C (stereo not given)
**Result** -2.68

**Query** Tell me its max response given COc1c2cc(c(O)c1OC)CCCCC(O)CCc1ccc(O)c-2c1 (stereo not given) as the entry.
**Result** 2.35

**Query** Return reported max response. Input molecule: `COc1cc(C[C@@]2(O)CO[C@@H](c3ccc(O[C@@H]4O[C@H](CO)[C@@H](O)[C@H](O)[C@H]4O)c(OC)c3)[C@H]2CO)ccc1O`
**Result** 1.94

====

# Tested on: Zika virus NS2B-NS3 protease (unlinked complex)
# assay.summary: Primary screen GU Rhodamine qHTS for Zika virus inhibitors: Unlinked NS2B-NS3 protease assay (AID 1347159); further: nearly all actives have a fitted effect of over 60% in size
# condition.details: Recombinant ZIKV NS2B-NS3 protease, Rhodamine110 substrate fluorescence; series mostly up to 107 µM
Records with an inconclusive call do not appear. Calls of active or inactive are those of the source. The call rests on the fitted dose curve; in most records, active means well fitted inhibition curve with a large enough effect; inconclusive means small, poorly fitted or top-dose-only effect; inactive means no such curve, though single readings can be large or run the other way.
// allowed return values: True (active), False (inactive)

Take a look at these entries with their results.
Cc1ccc(-n2nc(C(C)(C)C)cc2NC(=O)Nc2cc(COc3cccnc3)[nH]n2)cc1
False
O=C(O)CC1CCC(c2ccc(NC(=O)c3nnc(Nc4ccc(F)c(F)c4)o3)cc2)CC1 (stereo not drawn)
True
COCCCc1sc(-c2ccccc2)nc1C(=O)Nc1ccccc1-c1nc2cc(CN3CCCC3)cnc2s1
False
N#Cc1cc(-c2n[nH]c(-c3ccncc3)n2)ccn1
False

**Query** # lookup: test call for COc1ccc2[nH]c(S(=O)Cc3ncc(C)c(OC)c3C)nc2c1 (stereo not drawn)
**Result** False

**Query** Lab log entry: COC(=O)C1=COC(O[C@@H]2O[C@H](CO)[C@@H](O)[C@H](O)[C@H]2O)C2C(C)C(=O)CC12 (stereo partly drawn) — outcome as called in the assay?
**Result** False

**Query** What was the test verdict on `CC(=O)O[C@H]1C[C@@]2(C)[C@@H](CC[C@H]3[C@@]4(C)C=CC(=O)[C@@H](C)[C@@H]4[C@H](OC(C)=O)C(=O)[C@@]32C)/C1=C(\CCC=C(C)C)C(=O)O` ?
**Result** False

**Query** How was COc1cc(C2Oc3c(OC)cc(/C=C/C(=O)OC4CC(O)(C(=O)O)CC(O)C4O)cc3C2CO)ccc1O (stereo not drawn) classified in this test?
**Result** False

====

# Test system: HACAT
# assay.summary: qHTS assay to identify novel small-molecules to repurpose for Merkel cell carcinoma treatment (AID 1296009); further: nearly all actives have a fitted effect of over 60% in size
# condition.details: MCC and control cell lines, CellTiter-Glo viability, 72 h; at 44.8 µM (top of the series) unless noted
# Text: MCC is a rare and aggressive neuroendocrine skin cancer with limited treatment options. Approximately 80% of MCCs have the Merkel cell polyomavirus (MCPyV) DNA integrated into the host genome (virus-positive: VP-MCC) and viral oncogenes drive oncogenesis. The remaining MCCs are virus-negative (VN-MCC) and are caused by UV mutagenesis. […] Using cell viability as a readout (CellTiter-Glo assay) we found both overlapping and distinct drugs that can be repurposed for the treatment of VP-MCC and VN-MCC. […]
Inconclusive results are not listed. Calls of active or inactive are those of the source. Calls come from the whole dose curve; as a rule, active = well fitted inhibition curve with a large enough effect; inconclusive = small, poorly fitted or top-dose-only effect; inactive = flat fitted curve, though single readings scatter.
assay.metric: outcome

A selection of reference data follows.
O=C(OCC1OC(Oc2ccc(O)cc2COC(=O)C2(O)C(O)CCC(=O)C2OC(=O)C2C=CCC2)C(OC(=O)C2C=CCC2)C(O)C1O)C1C=CCC1 (configuration not stated)
inactive [at 17.4 µM]
CC1C2=CC(=O)OC2(O)CC2C1C(OC(=O)c1ccccc1)C(OC(=O)c1ccccc1)C1(O)C2(C)CCC(O)C1(C)C(=O)O (configuration not stated)
inactive [at 17.4 µM]
Cc1ccc(-n2nc(C(C)(C)C)cc2NC(=O)Nc2cc(COc3cccnc3)[nH]n2)cc1
inactive
COc1ccccc1Oc1c(NS(=O)(=O)c2ccc(C)cn2)nc(-c2ccncc2)nc1OC
inactive

**Query** Identify measured outcome associated with `COc1cc(CO)cc(OC)c1O[C@@H]1O[C@H](CO)[C@@H](O)[C@H](O)[C@H]1O`
**Result** inactive

**Query** Please look at this molecule and report its outcome: `C[C@@H]1O[C@@H](O[C@@H]2\C=C/C=C\C=C/C=C\C[C@H](C)OC(=O)/C=C\[C@H]3O[C@@H]3C[C@H](O)C[C@]3(O)C[C@@H](O)[C@@H](C(=O)O)[C@H](C2)O3)[C@H](O)[C@H](N)[C@@H]1O`
**Result** inactive

**Query** Recall and state the measured outcome for C[C@@H]1O[C@@H](O[C@H]2[C@H](O[C@H]3[C@H](O[C@H]4CC[C@@]5(C)C(CC[C@]6(C)C5CC=C5[C@@H]7CC(C)(C)C[C@@H](O)[C@]7(C)CC[C@]56C)C4(C)C)O[C@H](C(=O)O)[C@@H](O)[C@@H]3O)O[C@H](C(=O)O)[C@H](O)[C@@H]2O)[C@H](O)[C@H](O)[C@H]1O (some centres not stated) .
**Result** inactive [at 9.27 µM]

**Query** Query outcome for C=C1CC[C@@]2(OC1)O[C@H]1CC3[C@@H]4CC=C5C[C@H](O[C@H]6OC[C@@H](O)C(O)[C@@H]6O[C@@H]6O[C@@H](C)[C@H](O)[C@@H](O[C@@H]7O[C@H](CO)[C@@H](O)[C@H](O)[C@H]7O)[C@H]6O)C[C@@H](O)[C@]5(C)C4CC[C@]3(C)[C@H]1[C@@H]2C (some centres not stated)
**Result** inactive [at 9.27 µM]

**Query** Given `Cc1noc2c1-c1ccccc1C(c1ccc(Cl)cc1)=N[C@H]2CC(N)=O` , respond with its outcome.
**Result** inactive

**Query** Give the measured outcome for `O=C(c1c2ccccc2cc2ccccc12)N1CCC(N2CCC[C@@H](C(=O)N3CCOCC3)C2)CC1`
**Result** inactive

**Query** Indicate the recorded outcome value for this molecule: C[C@@H]1O[C@@H](OC2C(CO)OC(OCC3OC(OC(=O)[C@]45CCC(C)(C)CC4C4=CCC6[C@@]7(C)CC[C@@H](O)[C@](C)(C(=O)O)C7CC[C@@]6(C)[C@]4(C)CC5)C(O)C(O)C3O)C(O)C2O)[C@H](O)[C@H](O)[C@H]1O (some centres not stated)
**Result** inactive [at 9.27 µM]

====

# Tested on: PA-1
# assay.summary: Primary qHTS to identify gynecologic anti-cancer compounds using libraries of approved drugs and bioactive compounds (AID 1345084); further: on the % scale 0 is the no-effect control and ±100 the full control effect; nearly all actives have a fitted effect of over 55% in size
# condition.details: Gynecologic cancer cell panel viability, ATPlite luminescence, 48 h; series mostly up to 57.5 µM
Results filed as inconclusive are left out. Activity calls are given as the source filed them. Calls follow the shape of the dose curve; as a rule, active = well fitted cell-killing curve with a large enough effect; inconclusive = small, poorly fitted or top-dose-only effect, or effect the other way; inactive = flat fitted curve, though single readings scatter.
assay.metric: activity change, negative = cytotoxicity

CCCC/C=C\CCCCCc1cc(=O)c2ccccc2n1C
inactive
CC(=O)O[C@@H]1[C@H](O[C@@H]2O[C@H](CO)[C@@H](O)[C@H](O)[C@H]2O)[C@@H](O[C@@H]2O[C@@H](C)[C@H](O)[C@@H](O[C@@H]3O[C@H](CO)[C@@H](O)[C@H](O)[C@H]3O)[C@H]2O)[C@H](OC(=O)[C@]23CCC(C)(C)C[C@H]2C2=CCC4[C@@]5(C)C[C@H](O)[C@H](O[C@@H]6O[C@H](C(=O)O)[C@@H](O)[C@H](O)[C@H]6O)[C@@](C)(C(=O)O)C5CC[C@@]4(C)[C@]2(C)CC3)O[C@@H]1C (some centres undefined)
1.9% [at 6.55 µM] (inactive)
Cc1nc(-c2cccnc2)sc1C(=O)Nc1ccccc1-c1cn2c(CN3CCOCC3)csc2n1
inactive
COCCCc1sc(-c2ccccc2)nc1C(=O)Nc1ccccc1-c1nc2cc(CN3CCCC3)cnc2s1
inactive
